targetUnderTest: T1, recombinant human CD3 epsilon/gamma heterodimer (human, UniProt P07766 23-126; P09693 23-116)
T1 construct: Recombinant heterodimer used as analyte in Octet; also called hCD3 E/G
T1 sequence (P07766 23-126, chain 1 of 2): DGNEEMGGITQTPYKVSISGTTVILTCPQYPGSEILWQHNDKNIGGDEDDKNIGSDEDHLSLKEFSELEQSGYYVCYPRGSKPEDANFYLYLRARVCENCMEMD
T1 sequence (P09693 23-116, chain 2 of 2): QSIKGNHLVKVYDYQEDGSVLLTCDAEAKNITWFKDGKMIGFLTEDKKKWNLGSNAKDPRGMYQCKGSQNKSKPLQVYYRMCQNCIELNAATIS
testMethodNotes: BLI (Octet), mAb 5 ug/mL on FAB2G sensor, hCD3 E/G 200-50 nM;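 also: antibodies purified from hybridoma supernatants, measured by Octet binding to recombinant human CD3 protein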
Please provide measured koff for the entries that follow.
Numbers only, in s⁻¹.

Solved entries:
ABL-CD3-81 (antibody, V domains shown, mAb purified from hybridoma; chimeric AlivaMab IgG (human VH, CH1 and upper hinge; mouse middle hinge, CH2, CH3; human light chain)) VH: QVQLQESGPGLVKPSQTLSLTCTVSGGSISSGGYYWSWIRQHPGKGLEWIGYIYYSGSTYYNPSLKSRVTISVDTSKDQFSLKLSSVTAADTAVYYCARERKTSLPFDIWGQGTMVTVSS VL: NFMLTQPHSVSESPGKTVTISCTRSSGSIASNYVQWYQQRPGSSPTTVIYEDNQRPSGVPDRFSGSIDSSSNSASLTISGLKTEDEAYYYCQSFDSSNRVFGGGTKLTVL; 0.692
ABL-CD3-86 (antibody, V domains shown, mAb purified from hybridoma; chimeric AlivaMab IgG (human VH, CH1 and upper hinge; mouse middle hinge, CH2, CH3; human light chain)) VH: EVQLVESGGGLVKPGGSLRLSCAASGFTFSRYSMNWVRQAPGKGLEWVSTISRSSRYIYYGDSVKGRFTISRDNAKNSLLLQMNSLRAEDTAVYYCARDHNWSFDYWGKGILVTVSS VL: NFMLTQPLSVSESPGKTLTISCTRNSGSIASNYVQWYRQRPGSSPTTVIYEDKQRPSGVPDRFSGSIDSSSNSASLTISGLKAEDEADYYCQSCDSSNVVFGGGTTLTVL; 0.000558

Here is the next item to consider.
# return recorded koff for entry ABL-CD3-84 (antibody, V domains shown, mAb purified from hybridoma; chimeric AlivaMab IgG (human VH, CH1 and upper hinge; mouse middle hinge, CH2, CH3; human light chain)) VH: EVQLVESGGGLVKPGGSLRLSCAASGFTFSNFIMNWVRQAPGKGLEWVSSISGSSNYIYYADSVKGRFTISGDNAKNSLYLQMNSLRAEDTAVYYCAREKWVLLFFDYWGQGTLVTVSS VL: NFMLTQPHSVSESPGKTVTISCTRSSGSIASNYVQWYQQRPGSSPTTMIYEDTQRPSGVPDRFSGSIDSSSNSASLTISGLKTEDEADYYCQSYDSSNRVFGGGTKLTVL
0.0614

// provenance: patent US20260167721A1
